Value source: ChEMBL document CHEMBL1142711

# ASSAY TARGET: Kappa-type opioid receptor (Homo sapiens, UniProt P41145)
# Sequence (P41145 whole entry): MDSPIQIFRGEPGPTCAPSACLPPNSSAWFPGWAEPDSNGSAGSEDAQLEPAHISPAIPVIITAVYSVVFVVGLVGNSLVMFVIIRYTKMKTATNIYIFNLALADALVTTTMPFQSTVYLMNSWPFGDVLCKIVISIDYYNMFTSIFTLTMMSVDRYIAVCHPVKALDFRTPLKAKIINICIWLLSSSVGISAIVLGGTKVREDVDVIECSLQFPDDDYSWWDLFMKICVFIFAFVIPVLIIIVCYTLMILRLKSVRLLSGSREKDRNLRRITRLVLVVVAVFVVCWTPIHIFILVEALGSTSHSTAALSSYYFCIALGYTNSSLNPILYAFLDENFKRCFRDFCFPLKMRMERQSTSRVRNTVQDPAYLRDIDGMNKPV
# ASSAY COMMENT: Antagonistic activity against human opioid receptor kappa 1 expressed in CHO cells in [35S]GTP gamma S assay
# Type: functional, cell-based
Listing of recorded Ke by entry.

COMPOUND | Ke
Oc1ccc2c3c1O[C@H]1c4[nH]c5c(c4C[C@@]4(O)[C@@H](C2)N(CC2CC2)CC[C@]314)C[C@@]1(O)[C@H]2Cc3ccc(O)c4c3[C@@]1(CCN2CC1CC1)[C@H]5O4 | 0.11 nM
C[C@H]1c2c(c3c(n2Cc2ccccc2)[C@@H]2Oc4c(O)ccc5c4[C@@]24CCN(C)[C@H](C5)[C@]4(O)C3)CC2(O)[C@H]3Cc4ccc(O)c(O)c4[C@@]12CCN3C (some centres undefined) | 311 nM
CN1CC[C@]23c4c5ccc(O)c4O[C@H]2c2[nH]c4c(c2C[C@@]3(O)[C@H]1C5)C[C@@]1(O)[C@H]2Cc3ccc(O)c5c3[C@@]1(CCN2C)[C@H]4O5 | 27 nM

# ---- query compound ----
Query block: Look up and report Ke, with Kappa-type opioid receptor (Homo sapiens, UniProt P41145) as system, for Oc1ccc2c3c1O[C@H]1c4c(c5c(n4Cc4ccccc4)[C@@H]4Oc6c(O)ccc7c6[C@@]46CCN(CC4CC4)[C@H](C7)[C@]6(O)C5)C[C@@]4(O)[C@@H](C2)N(CC2CC2)CC[C@]314
Result block: 0.26 nM
